# experiment: Cytotoxicity on target cells in the antiviral assay
# cond: target cells of the HCoV-229E antiviral assay
measured-attribute: CC50

The following compounds each have a reported value; give each one's CC50.
1. NC(=O)c1ncn([C@@H]2O[C@H](CO)[C@@H](O)[C@H]2O)n1 [Ribavirin, reference compound]
2. CN(C)c1ccc(-c2nc3cnccn3c2NC(C)(C)C)cn1
3. c1ccc(CNc2c(-c3ccoc3)nc3cnccn23)cc1
4. Fc1cc(-c2nc3cnccn3c2NCc2ccccc2)ccn1
5. Fc1cc(-c2nc3cnccn3c2NC2CCCCC2)ccn1

Solution:
1. 160 µM
2. 186 µM
3. 653 µM
4. 271 µM
5. 174 µM

----------
Provide the reported pIC50 of each item.
# System: MCF7, HCT116, and K652 cancer cells
# experiment: MTT cytotoxicity assay, average of the three cell lines
# Format: cell-based
Answers are plain numbers, as −log10 of the molar value.

Worked examples, 5 molecules total:
CC(C)(C)Nc1c(-c2ccoc2)nc2cnccn12 = 4.90
COc1ccc(Nc2c(-c3ccoc3)nc3cnccn23)cc1 = 4.93
CN(C)c1ccc(-c2nc3cnccn3c2NC2CCCCC2)cn1 = 4.97
c1ccc(CNc2c(-c3ccoc3)nc3cnccn23)cc1 = 4.71
COc1ccc(Nc2c(-c3ccc(O)cc3O)nc3cnccn23)cc1 = 4.17

The following molecules each have a reported value; give each one's pIC50.
1. COc1ccc(Nc2c(-c3ccnc(F)c3)nc3cnccn23)cc1
2. Oc1ccc(-c2nc3cnccn3c2NCc2ccccc2)c(O)c1
3. Fc1cc(-c2nc3cnccn3c2NCc2ccccc2)ccn1

Solution:
1: 4.56; 2: 4.25; 3: 4.03

----------
# study-target: UniProtKB P50750
# Sequence (P50750 whole entry): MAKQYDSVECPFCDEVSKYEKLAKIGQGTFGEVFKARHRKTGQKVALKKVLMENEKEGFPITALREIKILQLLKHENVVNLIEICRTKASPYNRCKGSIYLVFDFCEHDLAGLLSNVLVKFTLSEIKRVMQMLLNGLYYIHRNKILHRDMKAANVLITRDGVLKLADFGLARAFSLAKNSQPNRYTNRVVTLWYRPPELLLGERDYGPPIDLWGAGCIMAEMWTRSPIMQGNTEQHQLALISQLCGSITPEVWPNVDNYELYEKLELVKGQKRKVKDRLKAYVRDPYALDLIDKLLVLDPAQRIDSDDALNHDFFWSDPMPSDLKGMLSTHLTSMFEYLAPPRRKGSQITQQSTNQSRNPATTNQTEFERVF
# Sequence (O60563 whole entry, further chain): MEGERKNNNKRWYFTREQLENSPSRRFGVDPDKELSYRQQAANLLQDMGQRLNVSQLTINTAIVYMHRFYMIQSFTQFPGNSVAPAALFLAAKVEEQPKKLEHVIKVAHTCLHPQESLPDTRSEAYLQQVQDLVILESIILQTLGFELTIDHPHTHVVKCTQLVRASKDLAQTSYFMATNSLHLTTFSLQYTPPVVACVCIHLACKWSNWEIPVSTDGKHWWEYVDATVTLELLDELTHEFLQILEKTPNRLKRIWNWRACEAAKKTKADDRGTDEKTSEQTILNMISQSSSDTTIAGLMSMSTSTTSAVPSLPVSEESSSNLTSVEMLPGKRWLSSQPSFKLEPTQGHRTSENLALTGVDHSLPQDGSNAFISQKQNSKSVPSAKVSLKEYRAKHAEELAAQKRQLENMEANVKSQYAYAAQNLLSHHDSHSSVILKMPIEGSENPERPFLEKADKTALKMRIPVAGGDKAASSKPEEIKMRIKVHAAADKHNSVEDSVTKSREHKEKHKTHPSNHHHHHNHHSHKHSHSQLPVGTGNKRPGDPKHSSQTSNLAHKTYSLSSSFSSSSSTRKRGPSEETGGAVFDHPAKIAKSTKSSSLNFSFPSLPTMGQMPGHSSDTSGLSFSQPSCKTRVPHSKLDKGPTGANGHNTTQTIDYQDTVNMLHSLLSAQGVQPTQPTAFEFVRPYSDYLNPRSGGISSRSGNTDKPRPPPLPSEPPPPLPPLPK
# experiment: In vitro CDK9 kinase assay (BPS Biosciences kit)
Provide the reported IC50 of each item.
Give bare numbers, in nM.

Worked examples, 3 molecules total:
CC(C)(C)Nc1c(-c2ccc(O)cc2O)nc2cnccn12 = 450
CN(C)c1ccc(-c2nc3cnccn3c2NC(C)(C)C)cn1 = 300
CC(C)(C)Nc1c(-c2ccnc(F)c2)nc2cnccn12 = 240

The following molecules each have a reported value; give each one's IC50.
1. Oc1ccc(-c2nc3cnccn3c2NC2CCCCC2)c(O)c1
2. CC(C)(C)Nc1c(-c2ccoc2)nc2cnccn12
3. Fc1cc(-c2nc3cnccn3c2NC2CCCCC2)ccn1

Solution:
300
190
1220

The following molecules each have a reported value; give each one's IC50.
1. COc1ccc(Nc2c(-c3ccc(N(C)C)nc3)nc3cnccn23)cc1
2. c1cn2c(NC3CCCCC3)c(-c3ccoc3)nc2cn1
3. Oc1ccc(-c2nc3cnccn3c2NCc2ccccc2)c(O)c1
4. COc1ccc(Nc2c(-c3ccnc(F)c3)nc3cnccn23)cc1

Solution:
1: 1660; 2: 1780; 3: 650; 4: 570

The following molecules each have a reported value; give each one's IC50.
1. Fc1cc(-c2nc3cnccn3c2NCc2ccccc2)ccn1
2. c1ccc(CNc2c(-c3ccoc3)nc3cnccn23)cc1
3. COc1ccc(Nc2c(-c3ccc(O)cc3O)nc3cnccn23)cc1
4. CN(C)c1ccc(-c2nc3cnccn3c2NC2CCCCC2)cn1
5. CN(C)c1ccc(-c2nc3cnccn3c2NCc2ccccc2)cn1

Solution:
1: 1110; 2: 460; 3: 890; 4: 230; 5: 330

Exercise: Quick check: IC50 of COc1ccc(Nc2c(-c3ccoc3)nc3cnccn23)cc1 ?
Solution: 180

----------
Provide the reported pIC50 of each item.
# Tested on: MCF7, HCT116, and K652 cancer cells
# experiment: MTT cytotoxicity assay, average of the three cell lines
# Assay type: cell-based
One number for each entry, as −log10 of the molar value.

The following compounds each have a reported value; give each one's pIC50.
1. CN(C)c1ccc(-c2nc3cnccn3c2NC(C)(C)C)cn1
2. Oc1ccc(-c2nc3cnccn3c2NC2CCCCC2)c(O)c1

Solution:
1. 4.46
2. 4.51

The following compounds each have a reported value; give each one's pIC50.
1. Fc1cc(-c2nc3cnccn3c2NC2CCCCC2)ccn1
2. c1cn2c(NC3CCCCC3)c(-c3ccoc3)nc2cn1
3. CC(C)(C)Nc1c(-c2ccnc(F)c2)nc2cnccn12
4. CC(C)(C)Nc1c(-c2ccc(O)cc2O)nc2cnccn12

Solution:
1. 4.74
2. 3.84
3. 4.68
4. 4.07

The following compounds each have a reported value; give each one's pIC50.
1. COc1ccc(Nc2c(-c3ccc(N(C)C)nc3)nc3cnccn23)cc1
2. CN(C)c1ccc(-c2nc3cnccn3c2NCc2ccccc2)cn1

Solution:
1. 3.85
2. 4.58
